Values compiled from PubChem BioAssay (NCI).

system: SK-MEL-28 melanoma; experiment: NCI tumour cell line growth inhibition, 48 h
outcome measure: log10 of TGI (log10 of the value in µM)
For clarity, the numbers are log10 values of TGI expressed in µM.

Field log10 of TGI (SK-MEL-28 melanoma), entry CN1CCN(CCCOc2cccc3nc(Nc4ccc(F)c(F)c4)ccc23)CC1 : 0.56

Field log10 of TGI (SK-MEL-28 melanoma), entry CCc1nc2cc(/C=C/C(=O)NO)ccc2c(=O)n1CCc1ccc(OC)cc1 : 1.18

Field log10 of TGI (SK-MEL-28 melanoma), entry O=C(/C=C\n1cnc(-c2cc(C(F)(F)F)cc(C(F)(F)F)c2)n1)N1CC(F)(F)C1 : 0.68

Field log10 of TGI (SK-MEL-28 melanoma), entry COc1ccccc1C1C(C#N)=C(N)Oc2cc(O)ccc21 (stereo not given) : 1.94

Field log10 of TGI (SK-MEL-28 melanoma), entry O=C1Nc2ccccc2/C1=C/c1cn(CC(O)Cn2cc(/C=C3\C(=O)Nc4ccccc43)c3ccccc32)c2ccccc12 (stereo not given) : 0.54

Field log10 of TGI (SK-MEL-28 melanoma), entry Cc1nc(Nc2ccc(Cl)c(Cl)c2)sc1C(=O)/C=C/c1ccc2c(c1)OCO2 : 1.94

Field log10 of TGI (SK-MEL-28 melanoma), entry COc1cc(C2c3cc4c(cc3[C@@H](N(C)c3ccc(N(C)C)cc3)C3COC(=O)C23)OCO4)cc(OC)c1O (stereo not given in full) : 1.44

Field log10 of TGI (SK-MEL-28 melanoma), entry Cc1c(C)c2c(c(C)c1OCC(=O)O)CC[C@@](C)(CCC[C@@H](C)CCC[C@@H](C)CCCC(C)C)O2 : 2.11

====

test system: A549 NSCLC; assay: NCI tumour cell line growth inhibition, 48 h
outcome measure: TGI

Memo: COc1ccccc1C1C(C#N)=C(N)Oc2cc(O)ccc21 (stereo not given) , reported TGI: > 100 µM

Memo: N#Cc1c(-c2ccccc2)cc(Nc2ccc(Cl)cc2)n2c1nc1ccccc12 , reported TGI: > 40.1 µM

Memo: NCCNC(=O)CN(CC(=O)O)C1CCCCC1N(CC(=O)O)CC(=O)O (stereo not given) , reported TGI: > 100 µM

Memo: Cc1cccc(Nc2cc(Cl)nc(SCC(=O)O)n2)c1C , reported TGI: > 100 µM

Memo: COc1cccc(NC(=O)c2sc3nc4c(cc3c2N)C(O)CCC4)c1 (stereo not given) , reported TGI: > 100 µM

Memo: CCOC(=O)c1nc2cc(C(F)(F)F)ccc2nc1Oc1ccc(F)cc1 , reported TGI: > 100 µM

Memo: Cc1cc(C)nc(NS(=O)(=O)c2ccc(NC(=O)c3cc([N+](=O)[O-])cc([N+](=O)[O-])c3)cc2)n1 , reported TGI: > 100 µM

Memo: Oc1c(O)c(Cl)c(Cl)c(Cl)c1Cl , reported TGI: 24.1 µM

Memo: Cc1noc(C)c1-c1cnc2c(-c3ccc(C(=O)O)cc3)cn([C@@H](C)c3ccccn3)c2c1 , reported TGI: > 100 µM

Memo: C=C(CO)CC(/C=C(\C)CC/C=C(\C)CCl)OC(C)=O (stereo not given) , reported TGI: > 100 µM

====

system: HL-60(TB) leukemia; experiment: NCI tumour cell line growth inhibition, 48 h
outcome measure: GI50

Field GI50 (HL-60(TB) leukemia), entry CCC[CH2][Sn]([CH2]CCC)([O]C(=O)c1cccc(F)c1F)[O]C(=O)c1cccc(F)c1F : 420 nM

Field GI50 (HL-60(TB) leukemia), entry Cn1cc(C2=C(c3ccccc3C(F)(F)F)C(=O)NC2=O)c2ccccc21 : 6870 nM

Field GI50 (HL-60(TB) leukemia), entry C[C@H](NC(=O)c1c(C(F)F)nn(C)c1Oc1cccc(C(F)(F)F)c1)c1ccc(C(=O)O)cc1 : > 100000 nM

Field GI50 (HL-60(TB) leukemia), entry COc1cc(CN(c2ccc(C)cc2)C2OC(=O)c3ccccc32)cc(OC)c1OC (stereo not given) : 406 nM

Field GI50 (HL-60(TB) leukemia), entry CCCCN1C(=O)/C(=c2\sc3n(c2=O)C2C(NN=3)N(CC)C(=O)N2CC)c2ccccc21 (stereo not given) : 1050 nM
